The entries below pair compounds with IC50 values for UniProt Q9UBN7, as found in several publications.

[[record]]
molecule_smiles = "CCN1CCC2(CC1)C[C@@H]2C(=O)N[C@@H](CCCCNC(=O)c1ccccc1SC)c1ncc(-c2cc3ccccc3nc2OC)[nH]1"
value_measured = "11600 nM"

[[record]]
molecule_smiles = "C[C@@H](NC(=O)C12CC3CC(CC(C3)C1)C2)c1ccc(C(=O)NO)s1"
value_measured = "> 500 nM"

[[record]]
molecule_smiles = "Cc1nc(-c2ccccn2)sc1C(=O)N[C@H](C)c1cc(C(=O)NO)cn1C"
value_measured = "> 500 nM"

[[record]]
molecule_smiles = "O=C(NO)c1ccc2c(c1)CCN(S(=O)(=O)c1ccc3ccccc3c1)C2"
value_measured = "< 50 nM"

[[record]]
molecule_smiles = "O=C(NO)c1ccc2c(c1)CCN(CCCc1ccccc1)C2"
value_measured = "100 to 500 nM"


Turning now to a further record.
IN: Give UniProt Q9UBN7 IC50 for "O=C(NO)c1cnc(NC2(c3cccc(F)c3)CCC3(CC2)OCCO3)nc1"
OUT: 3.9 nM
